# credit: patent US20060252807A1

- tested_system: active p38 alpha enzyme (Upstate Biotechnology) (Homo sapiens, UniProt Q16539)
- Construct: purchased Upstate Biotechnology
- Sequence (Q16539 whole entry): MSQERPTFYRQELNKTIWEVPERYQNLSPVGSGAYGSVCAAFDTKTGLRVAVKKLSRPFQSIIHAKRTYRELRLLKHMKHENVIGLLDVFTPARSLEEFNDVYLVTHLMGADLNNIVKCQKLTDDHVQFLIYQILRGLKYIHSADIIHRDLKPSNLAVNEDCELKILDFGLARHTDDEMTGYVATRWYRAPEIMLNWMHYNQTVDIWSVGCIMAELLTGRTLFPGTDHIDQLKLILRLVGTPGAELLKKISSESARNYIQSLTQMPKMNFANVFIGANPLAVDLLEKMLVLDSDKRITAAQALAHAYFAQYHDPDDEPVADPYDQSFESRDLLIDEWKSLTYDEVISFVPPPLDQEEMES
- protocol_details: p38α biochemical assay (ATP turnover, luminescent detection, Cambrex PKlight)
- experimental_conditions: p38α kinase; Table 1 Biological Activity
pIC50: −log10 of the molar value.
Some molecules, each annotated with its measured pIC50.

Please review the entries below; each comes with its answer.
{"molecule": "Cc1nc(-c2ccc(F)cc2)c(-c2nc(C(=O)NCCN3CCCC3)cs2)s1 [Example 1748]", "tested_system": "active p38 alpha enzyme (Upstate Biotechnology) (Homo sapiens, UniProt Q16539)", "pIC50": "≥ 6.00"}
{"molecule": "Cc1nc(-c2ccc(F)cc2)c(-c2nc(C(=O)NCCc3ccccc3)cs2)s1 [Example 1754]", "tested_system": "active p38 alpha enzyme (Upstate Biotechnology) (Homo sapiens, UniProt Q16539)", "pIC50": "≥ 6.00"}
{"molecule": "CC(C)NC(=O)c1csc(-c2c(-c3ccc(F)cc3)noc2CNC2CCCCC2)n1 [Example 1408]", "tested_system": "active p38 alpha enzyme (Upstate Biotechnology) (Homo sapiens, UniProt Q16539)", "pIC50": "< 6.00"}
{"molecule": "CC(C)NC(=O)c1csc(-c2c(-c3ccc(F)cc3)n[nH]c2C2CCN(C(=O)c3ccc(F)cc3)CC2)n1 [Example 840]", "tested_system": "active p38 alpha enzyme (Upstate Biotechnology) (Homo sapiens, UniProt Q16539)", "pIC50": "< 6.00"}

Now turn to the next molecule.
Exam item: So what's the measured pIC50 for this one? CC(C)NC(=O)c1csc(-c2oc(CNCCc3ccccc3)nc2-c2ccc(F)cc2)n1 [Example 1099]
Marked response: < 6.00

====

- tested_system: active p38 alpha enzyme (Upstate Biotechnology) (Homo sapiens, UniProt Q16539)
- Construct: purchased Upstate Biotechnology
- protocol_details: p38α biochemical assay (ATP turnover, luminescent detection, Cambrex PKlight)
- experimental_conditions: p38α biochemical assay, Table 1 Biological Activity
recorded_endpoint: IC50

{"chem_smiles": "CC(C)NC(=O)c1csc(-c2oc(CNC(=O)c3ccccc3C(=O)c3ccc(O)cc3)nc2-c2ccc(F)cc2)n1", "recorded_endpoint": "IC50", "result": "≤ 1 µM"}
{"chem_smiles": "Cc1ccc([N+](=O)[O-])c(C(=O)NCc2onc(-c3ccc(F)cc3)c2-c2nc(C(=O)NC(C)C)cs2)c1", "recorded_endpoint": "IC50", "result": "≤ 1 µM"}
{"chem_smiles": "CC(C)NC(=O)c1csc(-c2oc(CN3CCN(C(=O)c4cccc(Cl)c4Cl)CC3)nc2-c2ccc(F)cc2)n1", "recorded_endpoint": "IC50", "result": "> 1 µM"}
{"chem_smiles": "CC(C)NC(=O)c1csc(-c2oc(CNC(=O)c3c(F)c(F)c(F)c(F)c3F)nc2-c2ccc(F)cc2)n1", "recorded_endpoint": "IC50", "result": "≤ 1 µM"}
{"chem_smiles": "Cc1ccccc1CCC(=O)NCc1onc(-c2ccc(F)cc2)c1-c1nc(C(=O)NC(C)C)cs1", "recorded_endpoint": "IC50", "result": "> 1 µM"}
{"chem_smiles": "CC(C)NC(=O)c1csc(-c2oc(CNC(=O)c3c(Cl)cc(Cl)cc3Cl)nc2-c2ccc(F)cc2)n1", "recorded_endpoint": "IC50", "result": "≤ 1 µM"}

Now turn to the next compound.
Exam item: So what's the measured IC50 for this one? `CCCc1ccc(C(=O)NCc2onc(-c3ccc(F)cc3)c2-c2nc(C(=O)NC(C)C)cs2)cc1`
Marked response: > 1 µM

====

- tested_system: active p38 alpha enzyme (Upstate Biotechnology) (Homo sapiens, UniProt Q16539)
- Construct: purchased Upstate Biotechnology
- protocol_details: p38α biochemical assay (ATP turnover, luminescent detection, Cambrex PKlight)
- experimental_conditions: p38α biochemical assay, Table 1 Biological Activity
pIC50: −log10 of the molar value.
recorded_endpoint: pIC50

{"chem_smiles": "Cc1cccc(C(=O)N2CCN(Cc3nc(-c4ccc(F)cc4)c(-c4nc(C(=O)NC(C)C)cs4)o3)CC2)c1O", "pIC50": "≥ 6.00"}

Now turn to the next compound.
Exam item: So what's the measured pIC50 for this one? `CCCCCCCC(=O)N1CCN(Cc2nc(-c3ccc(F)cc3)c(-c3nc(C(=O)NC(C)C)cs3)o2)CC1`
Marked response: < 6.00

====

- tested_system: active p38 alpha enzyme (Upstate Biotechnology) (Homo sapiens, UniProt Q16539)
- Construct: purchased Upstate Biotechnology
- protocol_details: p38α biochemical assay (ATP turnover, luminescent detection, Cambrex PKlight)
- experimental_conditions: p38α biochemical assay, Table 1 Biological Activity
recorded_endpoint: IC50

{"compound": "CC(C)NC(=O)c1csc(-c2oc(CN3CCN(C(=O)C4N=CC([N+](=O)[O-])=CC=C4Cl)CC3)nc2-c2ccc(F)cc2)n1 (centres unmarked)", "tested_system": "active p38 alpha enzyme (Upstate Biotechnology) (Homo sapiens, UniProt Q16539)", "IC50": "≤ 1000 nM"}

Exam item: So what's the measured IC50 for this one? `CC(C)NC(=O)c1csc(-c2oc(CN3CCN(C(=O)c4ccc(-c5ccc(O)cc5)cc4)CC3)nc2-c2ccc(F)cc2)n1`
Marked response: ≤ 1000 nM

Exam item: # iterate: `COc1cc(C(=O)N2CCN(Cc3nc(-c4ccc(F)cc4)c(-c4nc(C(=O)NC(C)C)cs4)o3)CC2)c([N+](=O)[O-])cc1OC`
Marked response: > 1000 nM

Exam item: # iterate: `CCc1ccc(C(=O)N2CCN(Cc3nc(-c4ccc(F)cc4)c(-c4nc(C(=O)NC(C)C)cs4)o3)CC2)cc1`
Marked response: > 1000 nM

====

- tested_system: active p38 alpha enzyme (Upstate Biotechnology) (Homo sapiens, UniProt Q16539)
- Construct: purchased Upstate Biotechnology
- protocol_details: p38α biochemical assay (ATP turnover, luminescent detection, Cambrex PKlight)
- experimental_conditions: p38α kinase; Table 1 Biological Activity
pIC50: −log10 of the molar value.
Some compounds, each annotated with its measured pIC50.

Please review the entries below; each comes with its answer.
{"compound": "CC(C)NC(=O)c1csc(-c2oc(CNCCC(C)(C)C)nc2-c2ccc(F)cc2)n1", "pIC50": "≥ 6.00"}
{"compound": "CC(C)NC(=O)c1csc(-c2oc(CN(CCO)[C@H](C)c3ccccc3)nc2-c2ccc(F)cc2)n1", "pIC50": "< 6.00"}
{"compound": "CC(C)NC(=O)c1csc(-c2c(-c3ccc(F)cc3)n[nH]c2C2CCN(C(=O)c3ccc(-c4ccc(O)cc4)cc3)CC2)n1", "pIC50": "< 6.00"}
{"compound": "CCOC(=O)N1CCN(Cc2nc(-c3ccc(F)cc3)c(-c3nc(C(=O)NC(C)C)cs3)o2)CC1", "pIC50": "< 6.00"}
{"compound": "CC(CNC(=O)c1csc(-c2c(-c3ccc(F)cc3)n[nH]c2C2CCNCC2)n1)c1ccccc1 (stereo not drawn) [Example 2095]", "pIC50": "< 6.00"}

Now turn to the next compound.
Exam item: So what's the measured pIC50 for this one? `CC(C)(C)OC(=O)NCCCNC(=O)c1csc(-c2c(-c3ccc(F)cc3)n[nH]c2C2CCNCC2)n1`
Marked response: < 6.00

====

- tested_system: active p38 alpha enzyme (Upstate Biotechnology) (Homo sapiens, UniProt Q16539)
- Construct: purchased Upstate Biotechnology
- protocol_details: p38α biochemical assay (ATP turnover, luminescent detection, Cambrex PKlight)
- experimental_conditions: p38α biochemical assay, Table 1 Biological Activity
recorded_endpoint: IC50

Exam item: So what's the measured IC50 for this one? COc1ccc(C(=O)NCc2nc(-c3ccc(F)cc3)c(-c3nc(C(=O)NC(C)C)cs3)o2)c(OC)c1 [Example 225]
Marked response: > 1000 nM

Exam item: # iterate: CC(C)NC(=O)c1csc(-c2oc(CN3CCN(C(=O)c4ccc(N(C)C=O)cc4)CC3)nc2-c2ccc(F)cc2)n1 [Example 447]
Marked response: ≤ 1000 nM

====

- tested_system: active p38 alpha enzyme (Upstate Biotechnology) (Homo sapiens, UniProt Q16539)
- Construct: purchased Upstate Biotechnology
- protocol_details: p38α biochemical assay (ATP turnover, luminescent detection, Cambrex PKlight)
- experimental_conditions: p38α kinase; Table 1 Biological Activity
pIC50: −log10 of the molar value.
Some compounds, each annotated with its measured pIC50.

Please review the entries below; each comes with its answer.
{"compound": "COc1cc(OC)c(C(=O)N2CCC(c3[nH]nc(-c4ccc(F)cc4)c3-c3nc(C(=O)NC(C)C)cs3)CC2)c(OC)c1", "pIC50": "< 6.00"}
{"compound": "Cc1nc(-c2ccc(F)cc2)c(-c2nc(C(=O)N(CCC#N)Cc3cccnc3)cs2)s1", "pIC50": "< 6.00"}
{"compound": "CCC(CO)NC(=O)c1csc(-c2c(-c3ccc(F)cc3)n[nH]c2C2CCNCC2)n1 (stereo not shown) [Example 2051]", "pIC50": "≥ 6.00"}
{"compound": "CC(C)NC(=O)c1csc(-c2oc(CN3CCN(c4ccc(C(C)(C)C)cc4)CC3)nc2-c2ccc(F)cc2)n1", "pIC50": "< 6.00"}
{"compound": "CC(C)NC(=O)c1csc(-c2c(-c3ccc(F)cc3)noc2CN2CCN(c3ccc(C(F)(F)F)cc3)CC2)n1", "pIC50": "< 6.00"}

Exam item: So what's the measured pIC50 for this one? `O=C(NCc1ccc(F)cc1F)c1csc(-c2c(-c3ccc(F)cc3)n[nH]c2C2CCNCC2)n1`
Marked response: < 6.00

Exam item: # iterate: CCC(C)C(NC(=O)OC(C)(C)C)C(=O)N1CCC(c2[nH]nc(-c3ccc(F)cc3)c2-c2nc(C(=O)NC(C)C)cs2)CC1 (stereo not shown)
Marked response: < 6.00
